- Test system: Escherichia coli TOP10
- testDetails: shrunken log2 fold change of peptide-encoding DNA abundance (4.5 h post-induction vs induction); higher = less antimicrobial activity (less host growth inhibition)
- testParameters: time post-induction: 4.5 h; library: site-saturation at positions 5, 18, 19, 20

recordSequence: RRIRCRPPRLPRPRPRPWGIPRP
testTarget: Escherichia coli TOP10
shrunken log2 fold change: -0.59
--
recordSequence: RRIRQRPPRLPRPRPRPDFSPRP
testTarget: Escherichia coli TOP10
shrunken log2 fold change: 0.0756
--
recordSequence: RRIRQRPPRLPRPRPRPDPAPRP
testTarget: Escherichia coli TOP10
shrunken log2 fold change: 0.0492
--
recordSequence: RRIRNRPPRLPRPRPRPWLLPRP
testTarget: Escherichia coli TOP10
shrunken log2 fold change: -0.436
--
recordSequence: RRIRSRPPRLPRPRPRPFKSPRP
testTarget: Escherichia coli TOP10
shrunken log2 fold change: 0.0547
--
recordSequence: RRIRQRPPRLPRPRPRPNYLPRP
testTarget: Escherichia coli TOP10
shrunken log2 fold change: -0.134
--
recordSequence: RRIRGRPPRLPRPRPRPSYCPRP
testTarget: Escherichia coli TOP10
shrunken log2 fold change: 0.237
--
recordSequence: RRIRSRPPRLPRPRPRPKIEPRP
testTarget: Escherichia coli TOP10
shrunken log2 fold change: -0.0199

---

- Test system: Escherichia coli TOP10
- testDetails: shrunken log2 fold change of peptide-encoding DNA abundance (4.5 h post-induction vs induction); higher = less antimicrobial activity (less host growth inhibition)
- testParameters: time post-induction: 4.5 h; library: site-saturation at positions 5, 18, 19, 20
Tick y if shrunken log2 fold change is -0.03 or greater. Tick n if shrunken log2 fold change is less than -0.03.

recordSequence: RRIRNRPPRLPRPRPRPKMMPRP
classification: n

recordSequence: RRIRLRPPRLPRPRPRPYKYPRP
classification: y

recordSequence: RRIRKRPPRLPRPRPRPNPSPRP
classification: y

recordSequence: RRIRTRPPRLPRPRPRPGRTPRP
classification: n

recordSequence: RRIRPRPPRLPRPRPRPRDVPRP
classification: y

recordSequence: RRIRERPPRLPRPRPRPALLPRP
classification: n

recordSequence: RRIRLRPPRLPRPRPRPQDHPRP
classification: n

recordSequence: RRIRERPPRLPRPRPRPLPHPRP
classification: n

---

- System: Escherichia coli TOP10
- testDetails: shrunken log2 fold change of peptide-encoding DNA abundance (4.5 h post-induction vs induction); higher = less antimicrobial activity (less host growth inhibition)
- testParameters: time post-induction: 4.5 h; library: site-saturation at positions 5, 18, 19, 20
sequences and their reported shrunken log2 fold change

recordSequence: RRIRFRPPRLPRPRPRPENRPRP
shrunken log2 fold change: -0.0215

recordSequence: RRIRCRPPRLPRPRPRPWIWPRP
shrunken log2 fold change: -0.128

recordSequence: RRIRHRPPRLPRPRPRPFWDPRP
shrunken log2 fold change: -0.0244

recordSequence: RRIRNRPPRLPRPRPRPLQVPRP
shrunken log2 fold change: -0.136

recordSequence: RRIRGRPPRLPRPRPRPSHRPRP
shrunken log2 fold change: -0.0458

recordSequence: RRIRFRPPRLPRPRPRPFIWPRP
shrunken log2 fold change: -0.312

recordSequence: RRIRSRPPRLPRPRPRPPWQPRP
shrunken log2 fold change: 0.449

recordSequence: RRIRARPPRLPRPRPRPIMVPRP
shrunken log2 fold change: -0.146

recordSequence: RRIRQRPPRLPRPRPRPRKKPRP
shrunken log2 fold change: -0.0181

recordSequence: RRIRPRPPRLPRPRPRPHFIPRP
shrunken log2 fold change: -0.468

recordSequence: RRIRPRPPRLPRPRPRPRIRPRP
shrunken log2 fold change: 0.0752

recordSequence: RRIRFRPPRLPRPRPRPHQSPRP
shrunken log2 fold change: -0.114

recordSequence: RRIRIRPPRLPRPRPRPMPPPRP
shrunken log2 fold change: -0.0836

recordSequence: RRIRWRPPRLPRPRPRPNMDPRP
shrunken log2 fold change: 0.0467

recordSequence: RRIRKRPPRLPRPRPRPNVVPRP
shrunken log2 fold change: 0.0163

recordSequence: RRIRHRPPRLPRPRPRPKDDPRP
shrunken log2 fold change: -0.152

recordSequence: RRIRARPPRLPRPRPRPEPVPRP
shrunken log2 fold change: 0.512

recordSequence: RRIRLRPPRLPRPRPRPWYWPRP
shrunken log2 fold change: 0.134

recordSequence: RRIRPRPPRLPRPRPRPFASPRP
shrunken log2 fold change: 0.132

recordSequence: RRIRYRPPRLPRPRPRPTEIPRP
shrunken log2 fold change: -0.41

recordSequence: RRIRPRPPRLPRPRPRPWYRPRP
shrunken log2 fold change: -0.601

recordSequence: RRIRSRPPRLPRPRPRPALFPRP
shrunken log2 fold change: 0.069

recordSequence: RRIRQRPPRLPRPRPRPPMTPRP
shrunken log2 fold change: -0.268

recordSequence: RRIRLRPPRLPRPRPRPNTQPRP
shrunken log2 fold change: -0.0732

recordSequence: RRIRQRPPRLPRPRPRPVFMPRP
shrunken log2 fold change: -0.155

recordSequence: RRIRVRPPRLPRPRPRPFAMPRP
shrunken log2 fold change: -0.252

recordSequence: RRIRRRPPRLPRPRPRPELGPRP
shrunken log2 fold change: 0.809

recordSequence: RRIRCRPPRLPRPRPRPTWWPRP
shrunken log2 fold change: 0.294

recordSequence: RRIRWRPPRLPRPRPRPIFSPRP
shrunken log2 fold change: 0.0085

recordSequence: RRIRNRPPRLPRPRPRPPKEPRP
shrunken log2 fold change: -0.166

recordSequence: RRIRTRPPRLPRPRPRPCKFPRP
shrunken log2 fold change: -0.298

recordSequence: RRIRLRPPRLPRPRPRPWRSPRP
shrunken log2 fold change: -0.0908

---

- Tested on: Escherichia coli TOP10
- testDetails: shrunken log2 fold change of peptide-encoding DNA abundance (4.5 h post-induction vs induction); higher = less antimicrobial activity (less host growth inhibition)
- testParameters: time post-induction: 4.5 h; library: site-saturation at positions 5, 18, 19, 20
Record 1 whenever shrunken log2 fold change is at -0.05 or higher; record -1 when lower.

recordSequence: RRIRKRPPRLPRPRPRPVHAPRP
classification: 1
//
recordSequence: RRIRRRPPRLPRPRPRPKQEPRP
classification: 1
//
recordSequence: RRIRERPPRLPRPRPRPYWIPRP
classification: -1
//
recordSequence: RRIRPRPPRLPRPRPRPSIAPRP
classification: -1
//
recordSequence: RRIRERPPRLPRPRPRPAKKPRP
classification: 1
//
recordSequence: RRIRSRPPRLPRPRPRPCGQPRP
classification: 1
//
recordSequence: RRIRERPPRLPRPRPRPDLMPRP
classification: 1
//
recordSequence: RRIRDRPPRLPRPRPRPNGFPRP
classification: 1
//
recordSequence: RRIRMRPPRLPRPRPRPSGEPRP
classification: 1
//
recordSequence: RRIRVRPPRLPRPRPRPHTQPRP
classification: 1
//
recordSequence: RRIRNRPPRLPRPRPRPGDHPRP
classification: 1
//
recordSequence: RRIRQRPPRLPRPRPRPMLIPRP
classification: -1
//
recordSequence: RRIRFRPPRLPRPRPRPTMLPRP
classification: -1
//
recordSequence: RRIRSRPPRLPRPRPRPKCHPRP
classification: -1
//
recordSequence: RRIRIRPPRLPRPRPRPTRVPRP
classification: 1

---

- System: Escherichia coli TOP10
- testDetails: shrunken log2 fold change of peptide-encoding DNA abundance (4.5 h post-induction vs induction); higher = less antimicrobial activity (less host growth inhibition)
- testParameters: time post-induction: 4.5 h; library: site-saturation at positions 5, 18, 19, 20
Given measured shrunken log2 fold change, output class 1 if it is greater than or equal to -0.07 and class 0 if not.

recordSequence: RRIRDRPPRLPRPRPRPMVPPRP
classification: class 1

recordSequence: RRIRQRPPRLPRPRPRPVGQPRP
classification: class 1

recordSequence: RRIRQRPPRLPRPRPRPTPSPRP
classification: class 1

recordSequence: RRIRSRPPRLPRPRPRPGWTPRP
classification: class 1

recordSequence: RRIRDRPPRLPRPRPRPAINPRP
classification: class 0

recordSequence: RRIRYRPPRLPRPRPRPHGWPRP
classification: class 1

recordSequence: RRIRDRPPRLPRPRPRPSKQPRP
classification: class 0

---

- Tested on: Escherichia coli TOP10;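 also: peptides expressed intracellularly from a pBAD plasmid library in pooled LB shake-flask culture, induced with 0.3% L-arabinose, DNA abundance read by NGS, three biological replicates, DESeq2 with apeglm shrinkage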
- testDetails: shrunken log2 fold change of peptide-encoding DNA abundance (4.5 h post-induction vs induction); higher = less antimicrobial activity (less host growth inhibition)
- testParameters: time post-induction: 4.5 h; library: site-saturation at positions 5, 18, 19, 20
Think of 0.0007 as a floor: if shrunken log2 fold change stands on it or above, it is Met; beneath it, Not met.

recordSequence: RRIRCRPPRLPRPRPRPTPKPRP
classification: Met

recordSequence: RRIRHRPPRLPRPRPRPRIDPRP
classification: Not met

recordSequence: RRIRFRPPRLPRPRPRPMIMPRP
classification: Met

recordSequence: RRIRRRPPRLPRPRPRPVQLPRP
classification: Not met

recordSequence: RRIRWRPPRLPRPRPRPQGAPRP
classification: Met

recordSequence: RRIRQRPPRLPRPRPRPKFWPRP
classification: Met

recordSequence: RRIRRRPPRLPRPRPRPPWSPRP
classification: Met

recordSequence: RRIRIRPPRLPRPRPRPHMAPRP
classification: Not met

recordSequence: RRIRIRPPRLPRPRPRPGWGPRP
classification: Met

recordSequence: RRIRQRPPRLPRPRPRPTYQPRP
classification: Not met

recordSequence: RRIRWRPPRLPRPRPRPNNDPRP
classification: Not met

recordSequence: RRIRPRPPRLPRPRPRPYMEPRP
classification: Met

recordSequence: RRIRMRPPRLPRPRPRPIRLPRP
classification: Met

recordSequence: RRIRARPPRLPRPRPRPAWFPRP
classification: Met
